System tested: Endothelial lipase (EL) (Homo sapiens (Human), UniProt Q9Y5X9)
Sequence (Q9Y5X9 21-500): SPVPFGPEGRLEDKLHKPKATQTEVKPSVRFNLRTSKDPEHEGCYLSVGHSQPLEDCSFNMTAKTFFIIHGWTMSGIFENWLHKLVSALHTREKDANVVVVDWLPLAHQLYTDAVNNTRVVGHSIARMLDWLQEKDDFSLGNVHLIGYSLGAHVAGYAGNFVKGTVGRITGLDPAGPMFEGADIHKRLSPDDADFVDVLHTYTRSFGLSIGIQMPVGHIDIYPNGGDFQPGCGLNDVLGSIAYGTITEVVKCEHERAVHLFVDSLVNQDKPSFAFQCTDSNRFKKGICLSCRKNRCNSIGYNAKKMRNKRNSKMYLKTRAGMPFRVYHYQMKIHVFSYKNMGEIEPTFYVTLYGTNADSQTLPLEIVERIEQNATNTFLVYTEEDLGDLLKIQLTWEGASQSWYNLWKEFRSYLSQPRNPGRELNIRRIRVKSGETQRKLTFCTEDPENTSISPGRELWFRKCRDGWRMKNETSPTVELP
Test: Endothelial lipase (EL) enzymatic assay with fluorescent substrate A10070 in DMPG vesicles
Type: biochemical
Lab note: compare IC50 with 10 nM, writing TRUE if less and FALSE if equal or more.

Check out these entries, answers already filled in.
Could you please tell me whether IC50 recorded for COc1ncc(-c2cc3sc(C(C(=O)NCC(=O)NC4CC4)S(=O)(=O)C(C)C)nc3cc2C)cc1F (centres unmarked) is less than 10 nM?
FALSE

Could you please tell me whether IC50 recorded for CN(C)S(=O)(=O)C(C(=O)NCC(=O)NC1CC1)c1nc2c(F)cc(-c3ccc(N4CCCCC4=O)cc3)cc2s1 (centres unmarked) is less than 10 nM?
TRUE

***
Could you please tell me whether IC50 recorded for CC(C)CS(=O)(=O)C(C(=O)NCC(=O)NC1CC1)c1nc2cc(F)c(-c3ccc(NC(=O)OCc4ccccc4)cc3)cc2s1 (centres unmarked) is less than 10 nM?
TRUE

Could you please tell me whether IC50 recorded for COCCS(=O)(=O)C(C(=O)NCC(=O)NC1CC1)c1nc2cc(C)c(-c3ccn(C)c(=O)c3)cc2s1 (centres unmarked) is less than 10 nM?
FALSE

Could you please tell me whether IC50 recorded for O=C(CNC(=O)C(c1nc2cc(F)c(-c3cccc(-c4cc[nH]n4)c3)cc2s1)S(=O)(=O)CCC(F)(F)F)NC1CC1 (centres unmarked) is less than 10 nM?
TRUE

Could you please tell me whether IC50 recorded for CN(C)S(=O)(=O)C(C(=O)NCC(=O)NC1CC1)c1nc2c(F)cc(-c3ccc4cnn(C)c4c3)cc2s1 (centres unmarked) is less than 10 nM?
FALSE

Could you please tell me whether IC50 recorded for COCCS(=O)(=O)C(C(=O)NCC(=O)NC1CC1)c1nc2cc(-c3ccn(C)c(=O)c3)c(F)cc2s1 (centres unmarked) is less than 10 nM?
FALSE
